Method notes: refractive index (Na D-line) (dimensionless)
Applied conditions: 318.15 K; 101.33 kPa; Liquid; Standard Abbe refractometry
Observation type: refractive index

Compound: CCCCCCCCCCCCOS(=O)(=O)[O-].CCCCCCCCCCn1cc[n+](CCC#N)c1 [3-(2-cyanoethyl)-1-decylimidazolium dodecylsulfate]
Observation type: refractive index
Value measured: 1.46813
//
Compound: CCCCCCCCCCn1cc[n+](CCC#N)c1.O=C([O-])c1cccc(S(=O)(=O)O)c1 [3-(2-cyanoethyl)-1-decylimidazolium 3-sulfobenzoate]
Observation type: refractive index
Value measured: 1.50706
//
Compound: CCCCCCCCCCCCOS(=O)(=O)[O-].CCCCn1cc[n+](CCC#N)c1 [1-butyl-3-(2-cyanoethyl)-1H-imidazol-3-ium dodecyl sulfate]
Observation type: refractive index
Value measured: 1.48009
//
Compound: CCCCn1cc[n+](CCC#N)c1.O=S(=O)([O-])c1ccccc1 [1-butyl-3-(2-cyanoethyl)-1H-imidazolium benzenesulfonate]
Observation type: refractive index
Value measured: 1.52824

---

Applied conditions: 313.15 K; 101.33 kPa; Liquid
Observation type: viscosity (mPa·s)

Molecule: CCCCCCCCCCn1cc[n+](CCC#N)c1.O=C([O-])c1cccc(S(=O)(=O)O)c1 [3-(2-cyanoethyl)-1-decylimidazolium 3-sulfobenzoate]
Unit abbrev: mPa·s
viscosity: 4606

P = CCCCn1cc[n+](CCC#N)c1.O=S(=O)([O-])c1ccccc1 [1-butyl-3-(2-cyanoethyl)-1H-imidazolium benzenesulfonate]
Q = CCCCCCCCCCCCOS(=O)(=O)[O-].CCCCCCCCCCn1cc[n+](CCC#N)c1 [3-(2-cyanoethyl)-1-decylimidazolium dodecylsulfate]
R = CCCCCCCCCCCCOS(=O)(=O)[O-].CCCCn1cc[n+](CCC#N)c1 [1-butyl-3-(2-cyanoethyl)-1H-imidazol-3-ium dodecyl sulfate]
// smallest viscosity at index 0, largest at the end List the labels in the requested order.
P, R, Q

---

Method notes: refractive index (Na D-line) (dimensionless)
Applied conditions: 303.15 K; 101.33 kPa; Liquid; Standard Abbe refractometry
Observation type: refractive index

Compound: CCCCn1cc[n+](CCC#N)c1.O=S(=O)([O-])c1ccccc1 [1-butyl-3-(2-cyanoethyl)-1H-imidazolium benzenesulfonate]
Value measured: 1.53237
//
Compound: CCCCCCCCCCCCOS(=O)(=O)[O-].CCCCCCCCCCn1cc[n+](CCC#N)c1 [3-(2-cyanoethyl)-1-decylimidazolium dodecylsulfate]
Value measured: 1.47296
//
Compound: CCCCCCCCCCCCOS(=O)(=O)[O-].CCCCn1cc[n+](CCC#N)c1 [1-butyl-3-(2-cyanoethyl)-1H-imidazol-3-ium dodecyl sulfate]
Value measured: 1.48619
//
Compound: CCCCCCCCCCn1cc[n+](CCC#N)c1.O=C([O-])c1cccc(S(=O)(=O)O)c1 [3-(2-cyanoethyl)-1-decylimidazolium 3-sulfobenzoate]
Value measured: 1.51163

---

Applied conditions: 303.15 K; 101.33 kPa; Liquid
Observation type: viscosity (mPa·s)

Molecule: CCCCCCCCCCCCOS(=O)(=O)[O-].CCCCn1cc[n+](CCC#N)c1 [1-butyl-3-(2-cyanoethyl)-1H-imidazol-3-ium dodecyl sulfate]
Observation type: viscosity
Value measured: 4746
--
Molecule: CCCCCCCCCCn1cc[n+](CCC#N)c1.O=C([O-])c1cccc(S(=O)(=O)O)c1 [3-(2-cyanoethyl)-1-decylimidazolium 3-sulfobenzoate]
Observation type: viscosity
Value measured: 11449

P = CCCCn1cc[n+](CCC#N)c1.O=S(=O)([O-])c1ccccc1 [1-butyl-3-(2-cyanoethyl)-1H-imidazolium benzenesulfonate]
Q = CCCCCCCCCCCCOS(=O)(=O)[O-].CCCCCCCCCCn1cc[n+](CCC#N)c1 [3-(2-cyanoethyl)-1-decylimidazolium dodecylsulfate]
Exercise: compare P and Q ; which one has the greater viscosity? Identify your pick by its label.
Q
(Q: 16145 mPa·s, P: 1806 mPa·s)
